system: T1, Caspase-6 (UniProt P55212)
T1 sequence (looked up): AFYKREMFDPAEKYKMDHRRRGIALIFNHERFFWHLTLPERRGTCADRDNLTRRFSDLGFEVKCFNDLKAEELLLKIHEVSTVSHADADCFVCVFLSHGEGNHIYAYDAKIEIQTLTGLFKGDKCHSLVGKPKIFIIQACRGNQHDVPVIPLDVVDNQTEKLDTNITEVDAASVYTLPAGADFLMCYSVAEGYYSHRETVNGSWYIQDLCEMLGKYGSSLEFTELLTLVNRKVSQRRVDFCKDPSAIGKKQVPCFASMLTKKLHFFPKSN
experiment_description: cell-based or functional assay
Numbered stars: 1 amine (or outer) side, 2 acyl side, 3 side chain; on linkers, the order of the positions; unused ones are H or OH. Square brackets hold non-standard residues; d marks the D form. * marks the point of attachment. AAsp = aza-Asp, O=C(N(CC(=O)[*:3])N[*:1])[*:2]; CH═CH‑CON(CH3)CH2Ph = CN(Cc1ccccc1)C(=O)/C=C/*; CH═CH‑COOCH2Ph = O=C(/C=C/*)OCc1ccccc1; CH:CH‑COOEt = CCOC(=O)/C=C/*; Cbz = O=C(OCc1ccccc1)*
measured_quantity: k2 (M⁻¹ s⁻¹)

binder="Cbz-IET[AAsp]-{CH═CH‑CONHCH2CH2Ph} [Cbz-Ile-Glu-Thr-AAsp-CH═CH-CONHCH2CH2Ph]" result_units="M⁻¹ s⁻¹" numeric_value=18700
binder="Cbz-VEV[AAsp]-{CH:CH‑COOEt} (SMILES CCOC(=O)/C=C/C(=O)N(CC(=O)O)NC(=O)[C@@H](NC(=O)[C@H](CCC(=O)O)NC(=O)[C@@H](NC(=O)OCc1ccccc1)C(C)C)C(C)C) [Cbz-Val-Glu-Val-AAsp-CH═CH-COOEt]" result_units="M⁻¹ s⁻¹" numeric_value=83600
binder="Cbz-IET[AAsp]-{CH═CH‑CON(CH3)CH2Ph} (SMILES CC[C@H](C)[C@H](NC(=O)OCc1ccccc1)C(=O)N[C@@H](CCC(=O)O)C(=O)N[C@H](C(=O)NN(CC(=O)O)C(=O)/C=C/C(=O)N(C)Cc1ccccc1)[C@@H](C)O) [Cbz-Ile-Glu-Thr-AAsp-CH═CH-CON(CH3)CH2Ph]" result_units="M⁻¹ s⁻¹" numeric_value=45900
binder="Cbz-IET[AAsp]-{CH═CH‑COOCH2Ph} (SMILES CC[C@H](C)[C@H](NC(=O)OCc1ccccc1)C(=O)N[C@@H](CCC(=O)O)C(=O)N[C@H](C(=O)NN(CC(=O)O)C(=O)/C=C/C(=O)OCc1ccccc1)[C@@H](C)O) [Cbz-Ile-Glu-Thr-AAsp-CH═CH-COOCH2Ph]" result_units="M⁻¹ s⁻¹" numeric_value=23400
